Please provide measured isoTOP-ABPP reactivity profile ratio, Q15306_C194 for the entries that follow.
Biological target: IRF4 C194 (Q15306) (Homo sapiens)
Sequence (Q15306 whole entry): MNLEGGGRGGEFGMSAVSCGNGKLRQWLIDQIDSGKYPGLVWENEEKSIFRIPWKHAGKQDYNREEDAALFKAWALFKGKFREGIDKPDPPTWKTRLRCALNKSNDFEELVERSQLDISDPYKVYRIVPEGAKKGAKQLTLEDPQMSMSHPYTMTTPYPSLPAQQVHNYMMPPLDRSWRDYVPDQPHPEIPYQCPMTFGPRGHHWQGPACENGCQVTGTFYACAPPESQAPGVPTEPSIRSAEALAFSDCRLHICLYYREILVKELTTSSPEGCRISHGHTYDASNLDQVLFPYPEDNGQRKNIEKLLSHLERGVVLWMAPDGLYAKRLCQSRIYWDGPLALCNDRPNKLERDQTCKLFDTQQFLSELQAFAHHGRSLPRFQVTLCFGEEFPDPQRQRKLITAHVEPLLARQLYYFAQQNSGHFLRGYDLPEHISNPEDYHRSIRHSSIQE
Experiment: Competitive isoTOP-ABPP, cell lysates
Type: binding
Conditions: 500 μm, in-vitro_ramos

A selection of reference data follows.
[[record]]
molecule = "N#CC(=Cc1ccc(-c2ccccc2Cl)o1)C(N)=O [compound 42]"
target_of_assay = "IRF4 C194 (Q15306) (Homo sapiens)"
experimental_result = 1.2

[[record]]
molecule = "C=CC(=O)N1CCC(Cc2ccccc2)CC1 [compound 53]"
target_of_assay = "IRF4 C194 (Q15306) (Homo sapiens)"
experimental_result = 1.0

[[record]]
molecule = "O=C(CCl)Nc1ccc(-c2ccccc2)cc1 [compound 52]"
target_of_assay = "IRF4 C194 (Q15306) (Homo sapiens)"
experimental_result = 1.4

[[record]]
molecule = "COc1cc(NC(=O)CCl)cc(OC)c1 [compound 43]"
target_of_assay = "IRF4 C194 (Q15306) (Homo sapiens)"
experimental_result = 3.0


Next molecule, please.
isoTOP-ABPP reactivity profile ratio, Q15306_C194 for O=C(CCl)Nc1cccc2ncccc12 [compound 51] is 1.4

###

Please provide measured isoTOP-ABPP reactivity ratio, P24752_C126 for the entries that follow.
Target: UniProt P24752
Sequence (P24752 34-427): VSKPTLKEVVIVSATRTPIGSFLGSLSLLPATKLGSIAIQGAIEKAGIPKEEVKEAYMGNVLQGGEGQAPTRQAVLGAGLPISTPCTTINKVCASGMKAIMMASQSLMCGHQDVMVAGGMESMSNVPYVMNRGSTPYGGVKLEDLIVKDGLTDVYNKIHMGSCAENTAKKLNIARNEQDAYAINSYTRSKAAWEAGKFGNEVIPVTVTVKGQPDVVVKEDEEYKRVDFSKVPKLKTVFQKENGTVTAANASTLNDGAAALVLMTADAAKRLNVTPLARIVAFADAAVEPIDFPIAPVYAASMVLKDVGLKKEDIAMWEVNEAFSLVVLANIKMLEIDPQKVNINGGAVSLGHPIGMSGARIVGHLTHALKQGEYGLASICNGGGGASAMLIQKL
Experiment: Competitive isoTOP-ABPP, cell lysates
Type: binding
Conditions: 500 μm, in-vitro_ramos_231
Give bare numbers.

A selection of reference data follows.
[[record]]
mol_smiles = "C=CC(=O)Nc1cc(C)c(Br)cc1C"
experimental_result = 0.9

[[record]]
mol_smiles = "Cc1ccc(C=C(C#N)C(=O)NCCN2CCOCC2)cc1"
experimental_result = 1.0

[[record]]
mol_smiles = "C=CC(=O)N(Cc1cccnc1)c1cc(C(F)(F)F)cc(C(F)(F)F)c1"
experimental_result = 1.1

[[record]]
mol_smiles = "C=CC(=O)Nc1cc(F)c(N2CCN(C(=O)OC(C)(C)C)CC2)c(F)c1"
experimental_result = 1.0


Next compound, please.
isoTOP-ABPP reactivity ratio, P24752_C126 for `CC(C)(C)c1cc(NC(=O)CCl)on1` is 7.3

###

Please provide measured isoTOP-ABPP reactivity profile ratio, Q9Y3Z3_C522 for the entries that follow.
Biological target: SAMHD1 C522 (Q9Y3Z3) (Homo sapiens)
Sequence (Q9Y3Z3 whole entry): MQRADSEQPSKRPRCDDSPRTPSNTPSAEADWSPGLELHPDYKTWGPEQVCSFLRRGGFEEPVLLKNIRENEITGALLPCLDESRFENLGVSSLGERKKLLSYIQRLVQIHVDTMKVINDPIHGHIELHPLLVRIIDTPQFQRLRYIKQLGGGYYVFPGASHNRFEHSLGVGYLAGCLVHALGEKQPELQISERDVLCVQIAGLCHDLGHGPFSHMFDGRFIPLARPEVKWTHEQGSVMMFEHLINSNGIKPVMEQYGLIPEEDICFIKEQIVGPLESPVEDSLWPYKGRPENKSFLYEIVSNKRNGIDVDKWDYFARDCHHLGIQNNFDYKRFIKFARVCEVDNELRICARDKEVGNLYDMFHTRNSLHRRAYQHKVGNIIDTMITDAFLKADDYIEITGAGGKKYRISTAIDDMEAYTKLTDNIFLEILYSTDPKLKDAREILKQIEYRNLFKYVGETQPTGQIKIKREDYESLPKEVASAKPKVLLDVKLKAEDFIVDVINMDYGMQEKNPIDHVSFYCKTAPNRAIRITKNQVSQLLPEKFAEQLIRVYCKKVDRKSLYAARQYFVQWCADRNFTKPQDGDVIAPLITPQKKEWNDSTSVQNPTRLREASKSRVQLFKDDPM
Assay: Competitive isoTOP-ABPP, cell lysates
Format: binding
Conditions: 500 μm, in-vitro_ramos_231
Answers are plain numbers.

A selection of reference data follows.
[[record]]
compound = "O=C(CCl)Nc1ccc(-c2ccccc2)cc1 [compound 52]"
experimental_result = 1.2

[[record]]
compound = "COc1cc(NC(=O)CCl)cc(OC)c1 [compound 43]"
experimental_result = 2.2

[[record]]
compound = "O=C(CCl)NC1C(O)OC(CO)C(O)C1O (mixture of isomers) [compound 44]"
experimental_result = 0.8


Next compound, please.
isoTOP-ABPP reactivity profile ratio, Q9Y3Z3_C522 for Cc1ccc(C(F)(F)F)cc1NC(=O)CCl [compound 49] is 3.0

###

Molecular target: GNB2L1 C182 (P63244) (Homo sapiens, UniProt P63244)
Assay: Competitive isoTOP-ABPP, cell lysates
Type: binding
Settings: 500 μm in-vitro ramos
Please provide measured isoTOP-ABPP ratio (reactivity profile), P63244_C182 for the entries that follow.
One number for each entry.

A selection of reference data follows.
[[record]]
compound = "CC(Br)C(=O)Nc1cc(C(F)(F)F)cc(C(F)(F)F)c1 (stereo not shown) [compound 24]"
target_of_assay = "GNB2L1 C182 (P63244) (Homo sapiens, UniProt P63244)"
experimental_result = 2.6

[[record]]
compound = "CCN(CC)c1ccc(S(N)(=O)=O)cc1NC(=O)CCl [compound 30]"
target_of_assay = "GNB2L1 C182 (P63244) (Homo sapiens, UniProt P63244)"
experimental_result = 1.2

[[record]]
compound = "COc1ccccc1OCCNC(=O)CCl [compound 28]"
target_of_assay = "GNB2L1 C182 (P63244) (Homo sapiens, UniProt P63244)"
experimental_result = 1.1


isoTOP-ABPP ratio (reactivity profile), P63244_C182 for O=C(CCl)N1CCN(CC(=O)N2CCOCC2)CC1 [compound 29] is 1.2

###

Please provide measured isoTOP-ABPP ratio P30101_C406 for the entries that follow.
Target: cysteines in MDA-MB-231 and Ramos cells (Homo sapiens, UniProt P30101)
Sequence (P30101 25-505): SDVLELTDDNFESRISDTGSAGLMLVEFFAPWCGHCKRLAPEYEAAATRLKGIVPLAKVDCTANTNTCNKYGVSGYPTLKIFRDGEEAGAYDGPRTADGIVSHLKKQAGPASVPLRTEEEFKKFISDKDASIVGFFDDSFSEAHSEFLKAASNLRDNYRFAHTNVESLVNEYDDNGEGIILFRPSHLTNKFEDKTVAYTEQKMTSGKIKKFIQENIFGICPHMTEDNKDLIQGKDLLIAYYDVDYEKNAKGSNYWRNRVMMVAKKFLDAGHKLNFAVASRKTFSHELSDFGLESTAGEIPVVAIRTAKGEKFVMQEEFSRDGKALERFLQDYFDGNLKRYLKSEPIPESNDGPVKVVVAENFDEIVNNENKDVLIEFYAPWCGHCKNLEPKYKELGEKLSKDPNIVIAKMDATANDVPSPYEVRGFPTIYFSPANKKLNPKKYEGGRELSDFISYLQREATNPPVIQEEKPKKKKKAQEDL
Test: Competitive isoTOP-ABPP in situ (fragment-treated cells)
Format: cell-based
Details: 200 μM, insitu, ramos
One number for each entry.

[[record]]
mol_smiles = "O=C(CCl)N1CCN(S(=O)(=O)c2ccccc2F)CC1"
endpoint = "isoTOP-ABPP ratio P30101_C406"
experimental_result = 1.4

[[record]]
mol_smiles = "O=C(CCl)N1CCN(CC(=O)N2CCOCC2)CC1"
endpoint = "isoTOP-ABPP ratio P30101_C406"
experimental_result = 1.5

[[record]]
mol_smiles = "C=CC(=O)N(Cc1cccnc1)c1cc(C(F)(F)F)cc(C(F)(F)F)c1"
endpoint = "isoTOP-ABPP ratio P30101_C406"
experimental_result = 1.1


Next compound, please.
isoTOP-ABPP ratio P30101_C406 for `O=C(CCl)NCCc1c[nH]c2ccccc12` is 2.0

###

Molecular target: cysteines in MDA-MB-231 and Ramos cells (Homo sapiens, UniProt O95229)
Sequence (O95229 whole entry, the tested form may be a part): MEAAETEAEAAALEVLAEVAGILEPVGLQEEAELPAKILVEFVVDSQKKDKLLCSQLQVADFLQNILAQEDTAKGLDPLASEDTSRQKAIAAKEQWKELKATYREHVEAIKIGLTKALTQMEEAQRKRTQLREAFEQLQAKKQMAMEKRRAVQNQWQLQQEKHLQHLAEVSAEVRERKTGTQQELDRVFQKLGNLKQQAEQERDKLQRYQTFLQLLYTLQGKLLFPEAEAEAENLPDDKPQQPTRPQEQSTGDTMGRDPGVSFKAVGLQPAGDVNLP
Assay: Competitive isoTOP-ABPP in situ (fragment-treated cells)
Assay type: cell-based
Settings: 200 μM, insitu, 231
Endpoint: isoTOP-ABPP ratio O95229_C54
Give bare numbers.

A selection of reference data follows.
[[record]]
mol_smiles = "CC(C)CCOCCNC(=O)CCl"
endpoint = "isoTOP-ABPP ratio O95229_C54"
experimental_result = 0.5

[[record]]
mol_smiles = "COc1ccccc1OCCNC(=O)CCl"
endpoint = "isoTOP-ABPP ratio O95229_C54"
experimental_result = 0.7

[[record]]
mol_smiles = "O=C(CCl)Nc1cccc2ncccc12"
endpoint = "isoTOP-ABPP ratio O95229_C54"
experimental_result = 1.0

[[record]]
mol_smiles = "O=C(CCl)N1CCN(S(=O)(=O)c2ccccc2F)CC1"
endpoint = "isoTOP-ABPP ratio O95229_C54"
experimental_result = 2.3


Quick batch: isoTOP-ABPP ratio O95229_C54 for everything below.
1. O=C(CCl)NC12CC3CC(CC(C3)C1)C2
2. O=C(CCl)NCCc1c[nH]c2ccccc12
3. O=C(CCl)NC(=O)NC12CC3CC(CC(C3)C1)C2

Completion:
0.8
0.8
20.0

isoTOP-ABPP ratio O95229_C54 for `Cc1ccc(C=C(C#N)C(=O)NCCN2CCOCC2)cc1` is 0.6

###

Molecular target: cysteines in MDA-MB-231 and Ramos cells (Homo sapiens, UniProt P42166)
Sequence (P42166 whole entry, the tested form may be a part): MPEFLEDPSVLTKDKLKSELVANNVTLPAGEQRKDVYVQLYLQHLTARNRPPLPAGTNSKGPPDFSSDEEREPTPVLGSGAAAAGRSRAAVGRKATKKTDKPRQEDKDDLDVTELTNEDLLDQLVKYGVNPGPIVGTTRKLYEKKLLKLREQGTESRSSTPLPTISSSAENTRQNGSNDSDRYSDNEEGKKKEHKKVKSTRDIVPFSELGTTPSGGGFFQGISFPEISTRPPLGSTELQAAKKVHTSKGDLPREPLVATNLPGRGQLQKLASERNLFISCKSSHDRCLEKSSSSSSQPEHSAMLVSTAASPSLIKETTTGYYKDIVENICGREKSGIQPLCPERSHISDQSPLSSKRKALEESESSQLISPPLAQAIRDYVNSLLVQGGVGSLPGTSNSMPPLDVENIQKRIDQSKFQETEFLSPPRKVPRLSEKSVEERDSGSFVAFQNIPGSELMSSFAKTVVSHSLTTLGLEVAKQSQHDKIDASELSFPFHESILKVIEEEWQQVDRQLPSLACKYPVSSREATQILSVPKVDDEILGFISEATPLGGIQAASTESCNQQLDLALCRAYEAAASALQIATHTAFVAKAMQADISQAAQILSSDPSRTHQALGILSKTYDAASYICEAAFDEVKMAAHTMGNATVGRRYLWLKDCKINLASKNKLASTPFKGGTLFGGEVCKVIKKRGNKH
Test: Competitive isoTOP-ABPP in situ (fragment-treated cells)
Assay type: cell-based
Conditions: 200 μM, insitu, 231
Endpoint: isoTOP-ABPP ratio P42166_C341
Answers are plain numbers.

A selection of reference data follows.
[[record]]
mol_smiles = "O=C(CCl)Nc1cccc2ncccc12"
target_of_assay = "cysteines in MDA-MB-231 and Ramos cells (Homo sapiens, UniProt P42166)"
endpoint = "isoTOP-ABPP ratio P42166_C341"
experimental_result = 1.2

[[record]]
mol_smiles = "Cc1ccc(C=C(C#N)C(=O)NCCN2CCOCC2)cc1"
target_of_assay = "cysteines in MDA-MB-231 and Ramos cells (Homo sapiens, UniProt P42166)"
endpoint = "isoTOP-ABPP ratio P42166_C341"
experimental_result = 0.5

[[record]]
mol_smiles = "O=C(CCl)NC12CC3CC(CC(C3)C1)C2"
target_of_assay = "cysteines in MDA-MB-231 and Ramos cells (Homo sapiens, UniProt P42166)"
endpoint = "isoTOP-ABPP ratio P42166_C341"
experimental_result = 1.7

[[record]]
mol_smiles = "CC(C)CCOCCNC(=O)CCl"
target_of_assay = "cysteines in MDA-MB-231 and Ramos cells (Homo sapiens, UniProt P42166)"
endpoint = "isoTOP-ABPP ratio P42166_C341"
experimental_result = 0.6


isoTOP-ABPP ratio P42166_C341 for `O=C(CCl)NCCc1c[nH]c2ccccc12` is 1.3
